Test system: MDA-MB-468 breast
Test: NCI-60 one-dose screen, 48 h
Settings: 10 µM unless noted
About 83,000 compounds went through this panel and 20% of them were active in at least one assay; those are over-represented in the sample as a whole. Activity calls are given as the source filed them. How the source made its calls: active means growth percent below 10; inactive means the rest.
The reply should be one of these categories: active, inactive

Sample answers from the record:
>>> labelvalue("Cn1cc(-c2nnc(-c3ccccc3)s2)c2cc(Br)cnc21")
"inactive"
>>> labelvalue("Cc1cc(-c2ccc(Cl)cc2)n(Cc2nnc(SCC(=O)Nc3ccc(S(N)(=O)=O)cc3)n2-c2ccc([N+](=O)[O-])cc2)n1")
"inactive"
>>> labelvalue("COc1cc2c(cc1OC)C(C(CCCCCC(CCC(C)C)C1NCCc3cc(OC)c(OC)cc31)CCC(C)C)NCC2 (stereo not given)")
"active"
>>> labelvalue("COc1cccc(/C=N/Nc2nc3ccccc3s2)c1OC")
"inactive"
>>> labelvalue("COc1ncnc2c1ncn2C/C(Br)=C(\\Br)CCl")
"inactive"

Data request: What is the recorded call for this compound in the test? COc1ccc(C2CC(c3ccccc3)=Nc3ccccc3S2)cc1 (stereo not given)
Data returned: inactive

Data request: What is the recorded call for this compound in the test? CN(C)c1ccc(/C=C/c2nccc3ccccc23)cc1
Data returned: active

Data request: What is the recorded call for this compound in the test? CN1CCN(CC(=O)Nc2nc(-c3cccc(NS(=O)(=O)c4cccc5c(N(C)C)cccc45)c3)cs2)CC1
Data returned: inactive

Data request: What is the recorded call for this compound in the test? CS(=O)(=O)c1ccc(-c2cnn3ccc(-c4cccc(S(=O)(=O)C5CC5)c4)nc23)cc1
Data returned: inactive

Data request: What is the recorded call for this compound in the test? CCc1cccc2c1S/C(=C/c1ccc(Cl)cc1)C2=O
Data returned: inactive

----------
System: HOP-92 NSCLC
Assay: NCI-60 one-dose screen, 48 h (100 = growth as untreated, 0 = no growth, -100 = all killed)
Conditions: 10 µM
About 83,000 compounds went through this panel and 20% of them were active in at least one assay; those are over-represented in the sample as a whole.
Quick rule for you: growth under 40% gets yes (1), anything else gets no (0).

>>> labelvalue("Cn1cc(-c2cc(N)n3nc(-c4cn(C)c5ccccc45)cc3n2)c2cc(F)ccc21")
"yes (1)"
>>> labelvalue("COc1ccccc1-n1cc(C#N)c(N)c1C(=O)c1ccc(Cl)cc1Cl")
"no (0)"

Data request: Dear reviewer, please state whether COc1cccc(O)c1/C=C1\SCc2cc3c(OC)cccc3[o+]c21 has growth strictly beneath 40%.
Data returned: no (0)

Data request: Dear reviewer, please state whether O=C(c1ccc(Cl)cc1)C(c1c[nH]c2ccccc12)c1c[nH]c2ccccc12 has growth strictly beneath 40%.
Data returned: yes (1)

Data request: Dear reviewer, please state whether O=C1S/C(=C\c2ccc([N+](=O)[O-])cc2)C(=O)N1CCN1CCCCC1 has growth strictly beneath 40%.
Data returned: no (0)

Data request: Dear reviewer, please state whether C#C[C@]1(O)CC[C@H]2[C@@H]3CC=C4c5sc(Nc6ccc(N(C)C)cc6)nc5CC[C@]4(C)[C@H]3CC[C@@]21C has growth strictly beneath 40%.
Data returned: yes (1)

Data request: Dear reviewer, please state whether CCOc1ccc(/C=N/NC(=O)Cn2nc(Cc3ccc(OC)cc3)c3onc(C)c3c2=O)cc1 has growth strictly beneath 40%.
Data returned: yes (1)

----------
Test system: IGROV1 ovarian
Test: NCI-60 one-dose screen, 48 h (100 = growth as untreated, 0 = no growth, -100 = all killed)
Conditions: 10 µM
Compounds without any hit were thinned out: in the full panel of roughly 83,000, 20% have a hit.
quantityName: growth (%)
Provide only the numeric value, understood in %.

>>> endpointvalue("COc1ccc(Cn2cc(C#N)c(N)c2C(C)=O)c(OC)c1")
112
>>> endpointvalue("COc1ccc(C(=O)COc2ccc(NC(=O)Nc3ccc(Cl)c(C(F)(F)F)c3)cc2)cc1")
49.9
>>> endpointvalue("Fc1ccc(-c2csc(Nc3cccc(Nc4nc(-c5ccc(F)cc5)cs4)c3)n2)cc1")
41.8
>>> endpointvalue("Cn1cc(-c2cc3nc(-c4c[nH]c5ccccc45)cc(N)n3n2)c2cc(Cl)ccc21")
-64.5
>>> endpointvalue("O=C(c1ccc(Cl)cc1)C(c1c[nH]c2ccccc12)c1c[nH]c2ccccc12")
-19.4
>>> endpointvalue("O=C1S/C(=C\\c2ccc([N+](=O)[O-])cc2)C(=O)N1CCN1CCCCC1")
112
>>> endpointvalue("COc1cc(C2CC(c3ccc(Oc4ccc(Cl)cc4)cc3)=NN2c2nc(-c3ccc(Cl)cc3)c(C#N)c(N3CCOCC3)n2)cc(OC)c1OC (stereo not drawn)")
106
>>> endpointvalue("O=C(Nc1ccc(OCc2ccc(Cl)cc2)cc1)Nc1ccc(Cl)c(C(F)(F)F)c1")
47.6
>>> endpointvalue("O=C(Nc1ccc(OCc2ccc(F)cc2)cc1)Nc1ccc(Cl)c(C(F)(F)F)c1")
43.6
>>> endpointvalue("O=C(CSc1nc2ccccc2c(=O)n1-c1ccc(Cl)cc1)Nc1ccc(-c2nc3ccccc3[nH]2)cc1")
53.2

Value of growth reported for the compound Cc1ccc(-c2nc(C#N)c(S(=O)(=O)N3CCN(S(C)(=O)=O)CC3)o2)cc1 is 54.9

----------
Tested on: MDA-MB-468 breast
Assay: NCI-60 one-dose screen, 48 h
Details: 10 µM unless noted
The panel holds about 83,000 compounds, 20% with a hit somewhere; the sample as a whole holds those more often. The source made the active and inactive calls. The calls were made as follows: active = growth percent below 10; inactive = the rest.
The reply should be one of these categories: active, inactive

>>> labelvalue("C#C[C@]1(O)CC[C@H]2[C@@H]3CC=C4c5sc(Nc6cc(F)ccc6F)nc5CC[C@]4(C)[C@H]3CC[C@@]21C")
"active"
>>> labelvalue("O=C1/C(=C\\c2cn(-c3nc(N4CCOCC4)nc(N4CCOCC4)n3)c3ccccc23)c2ccccc2N1c1c(Cl)cccc1Cl")
"inactive"
>>> labelvalue("CC(C)C(C(=O)CCN(C)C)c1ccc(Cl)cc1 (configuration not stated)")
"inactive"

Data request: What is the recorded call for this molecule in the test? NC(N)=Nc1ccc(Oc2cccc(Nc3ccc(Cl)c(C(F)(F)F)c3)c2)cn1
Data returned: active

Data request: What is the recorded call for this molecule in the test? COc1ccc(/C=C2\CCCC3C2=Nc2ccccc2NC3c2ccc(OC)cc2)cc1 (configuration not stated)
Data returned: inactive

----------
Test system: HCC-2998 colon
Assay: NCI-60 one-dose screen, 48 h
Settings: 10 µM
About 83,000 compounds went through this panel and 20% of them were active in at least one assay; those are over-represented in the sample as a whole. Activity calls are given as the source filed them. How the source made its calls: active means growth percent below 10; inactive means the rest.
The reply should be one of these categories: y (active), n (inactive)

Data request: What is the recorded call for this compound in the test? O=C(CSc1nc2ccccc2c(=O)n1-c1ccc(Cl)cc1)Nc1ccc(-c2nc3ccc([N+](=O)[O-])cc3[nH]2)cc1
Data returned: n

Data request: What is the recorded call for this compound in the test? Cn1cc(/C=C(/SS/C(=C/c2cn(C)c3cccc(C(=O)O)c23)C(=O)O)C(=O)O)c2c(C(=O)O)cccc21
Data returned: n

Data request: What is the recorded call for this compound in the test? COc1ccc2[nH]cc(-c3nc(N)nnc3-c3cn(C)c4ncc(Br)cc34)c2c1
Data returned: n

Data request: What is the recorded call for this compound in the test? Cn1cc(-c2nnc(N)nc2-c2c[nH]c3ccc(F)cc23)c2cc(Br)cnc21
Data returned: n

Data request: What is the recorded call for this compound in the test? COc1ccc(C2OC[C@@]3(C)C4CC[C@]5(C)C(CC=C6C7CC(C)(C)CC[C@]7(C(=O)O)CC[C@]65C)[C@@]4(C)C[C@@H](O)[C@@H]3O2)cc1 (some centres undefined)
Data returned: n

Data request: What is the recorded call for this compound in the test? Cc1cc(N=C2NC(=O)S/C2=C\c2ccc(F)cc2)n[nH]1
Data returned: n

Data request: What is the recorded call for this compound in the test? Cc1ccc2c(c1)C(=O)/C(=C/c1c[nH]c3ccccc13)S2
Data returned: n

Data request: What is the recorded call for this compound in the test? Cn1cc(-c2cc3nc(-c4c[nH]c5ccccc45)cc(N)n3n2)c2cc(Cl)ccc21
Data returned: y

Data request: What is the recorded call for this compound in the test? O=C(Nc1ccc(OCC(=O)c2ccc(Cl)cc2)cc1)Nc1ccc(Cl)c(C(F)(F)F)c1
Data returned: n

----------
# reported growth; entries follow
Test system: MDA-MB-468 breast
Assay: NCI-60 one-dose screen, 48 h (100 = growth as untreated, 0 = no growth, -100 = all killed)
Conditions: 10 µM unless noted
The panel holds about 83,000 compounds, 20% with a hit somewhere; the sample as a whole holds those more often.
Provide only the numeric value, understood in %.

Here's what some known entries look like.
>>> endpointvalue("N#CCC1CCCC1")
97.4
>>> endpointvalue("OC(Cc1cccnc1)c1ccccc1 (stereo not given)")
111
>>> endpointvalue("COc1cc2c(cc1OC)C(=O)C(CC1CCN(C(=O)Nc3ccc(C)cc3)CC1)C2 (stereo not given)")
93.1
>>> endpointvalue("CCSc1ccc2c(c1)N(CCCN1CCN(C)CC1)c1ccccc1S2")
-3.41

Value of growth reported for the compound Cc1ccc2nc(NC(=O)CSc3nc(Cl)c(C#N)c(-c4ccccc4)n3)sc2c1 is 87.5

Value of growth reported for the compound CS(=O)(=O)c1ccc(C(=O)N2N=C(c3ccccc3)CC2c2ccc3c(c2)OCO3)cc1 (stereo not given) is 90.1
